- system: MAP3K1 (human) (UniProt Q13233)
- Sequence (Q13233 whole entry, looked up): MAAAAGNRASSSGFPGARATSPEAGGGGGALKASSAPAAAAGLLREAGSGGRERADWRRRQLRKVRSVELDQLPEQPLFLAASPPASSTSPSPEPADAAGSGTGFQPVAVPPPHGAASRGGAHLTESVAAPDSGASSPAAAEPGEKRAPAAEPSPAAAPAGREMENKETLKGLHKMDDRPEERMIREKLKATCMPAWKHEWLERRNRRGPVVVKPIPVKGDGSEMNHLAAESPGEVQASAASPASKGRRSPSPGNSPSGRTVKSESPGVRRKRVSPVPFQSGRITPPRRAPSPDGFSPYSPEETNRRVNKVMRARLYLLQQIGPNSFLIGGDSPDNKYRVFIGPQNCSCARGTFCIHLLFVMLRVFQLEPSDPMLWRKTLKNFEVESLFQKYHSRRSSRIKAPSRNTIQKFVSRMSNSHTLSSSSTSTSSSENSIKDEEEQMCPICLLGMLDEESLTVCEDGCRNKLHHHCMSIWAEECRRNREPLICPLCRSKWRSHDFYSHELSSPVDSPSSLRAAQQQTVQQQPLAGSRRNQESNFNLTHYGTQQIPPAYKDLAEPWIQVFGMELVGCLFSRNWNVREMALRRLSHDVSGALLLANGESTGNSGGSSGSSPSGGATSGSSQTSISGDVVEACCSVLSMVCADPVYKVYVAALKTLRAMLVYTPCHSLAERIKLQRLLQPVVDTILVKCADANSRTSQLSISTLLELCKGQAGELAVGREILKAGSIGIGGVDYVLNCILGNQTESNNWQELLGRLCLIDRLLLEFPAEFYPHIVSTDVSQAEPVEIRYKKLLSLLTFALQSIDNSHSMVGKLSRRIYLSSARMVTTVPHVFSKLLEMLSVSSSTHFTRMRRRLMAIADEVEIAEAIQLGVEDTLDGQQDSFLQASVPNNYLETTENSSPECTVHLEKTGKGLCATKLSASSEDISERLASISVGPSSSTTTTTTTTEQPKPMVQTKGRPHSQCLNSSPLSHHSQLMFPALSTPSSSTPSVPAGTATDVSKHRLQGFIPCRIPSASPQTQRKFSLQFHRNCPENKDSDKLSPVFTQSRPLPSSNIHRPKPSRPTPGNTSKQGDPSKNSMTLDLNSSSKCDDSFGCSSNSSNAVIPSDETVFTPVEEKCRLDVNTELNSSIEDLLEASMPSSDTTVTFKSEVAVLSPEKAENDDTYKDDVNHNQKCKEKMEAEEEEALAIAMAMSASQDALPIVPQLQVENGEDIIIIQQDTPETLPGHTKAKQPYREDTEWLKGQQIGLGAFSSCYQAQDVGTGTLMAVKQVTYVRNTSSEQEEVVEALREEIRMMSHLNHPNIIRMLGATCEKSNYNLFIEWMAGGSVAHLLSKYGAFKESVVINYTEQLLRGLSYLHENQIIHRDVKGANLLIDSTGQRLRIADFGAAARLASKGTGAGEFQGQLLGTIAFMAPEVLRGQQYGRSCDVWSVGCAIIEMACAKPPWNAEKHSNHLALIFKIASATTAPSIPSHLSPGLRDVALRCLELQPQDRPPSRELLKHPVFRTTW
- assay.info: KINOMEscan competition binding
- measurement.setup: compound 10.0 µM
// assign Yes if kinase still bound, per cent of control falls strictly below 90%, else No (ties count as No)

Cc1ccc2nc(NCCN)c3ncc(C)n3c2c1    Yes
CN(C)C/C=C/C(=O)Nc1cccc(Nc2ncc3c(n2)N(C)c2ccccc2C(=O)N3C)c1    Yes
Nc1ccc(-c2ccc3ncc4ccc(=O)n(-c5cccc(C(F)(F)F)c5)c4c3c2)cn1    No
OCCCNc1cc(-c2ccnc(Nc3cccc(Cl)c3)n2)ccn1    No
Cc1ccc(NC(=O)c2cccc(C(C)(C)C#N)c2)cc1Nc1ccc2ncn(C)c(=O)c2c1    Yes

Q: Consider the compound C=CC(=O)Nc1cc(NC(=O)c2ccc(C)c(NC(=O)c3ccno3)c2)cc(C(F)(F)F)c1 . Is its kinase still bound, per cent of control strictly less than 90%?
Result: No

Q: Given CCOc1cc2ncc(C#N)c(Nc3ccc(OCc4ccccn4)c(Cl)c3)c2cc1NC(=O)/C=C/CN(C)C , is recorded kinase still bound, per cent of control strictly lower than 90%?
Result: No
